Experiment: Fluorescence spectra of coelenteramide analogue alone (absence of apoaequorin)
Type: physicochemical
Settings: analogue alone 8 μg/ml, 10 mM CaCl2 buffer pH 7.6, excitation 337 nm
Note to self: Coelenteramide (Buffer containing CaCl2) Fluorescence intensity (rlu) under 10 rlu means satisfied, ties and anything higher get not satisfied.

compound	discrete label
C=C(c1ccccc1)c1nc(-c2ccc(O)cc2)cnc1NC(=O)Cc1ccc(O)cc1	not satisfied
O=C(Cc1ccc(O)cc1)Nc1ncc(-c2ccc(O)cc2)nc1Cc1ccccc1 [Coelenteramide]	satisfied
O=C(Cc1ccc(O)cc1)Nc1ncc(-c2ccc(O)cc2)nc1Br	not satisfied
O=C(Cc1ccc(O)cc1)Nc1ncc(-c2ccc(O)cc2)nc1-c1ccc2ccccc2c1	not satisfied
CC(C(=O)Nc1ncc(-c2ccc(O)cc2)nc1Cc1ccccc1)c1ccc(O)cc1 (stereo not shown)	satisfied
O=C(Nc1ncc(-c2ccc(O)cc2)nc1Cc1ccccc1)c1cccc2cc(O)ccc12	not satisfied

====

Biological target: apoaequorin (Aequorea victoria, UniProt P07164)
Construct: purchased Chisso Corporation
Sequence (P07164 other isoform, or with tags, fused parts or gaps with the stated changes): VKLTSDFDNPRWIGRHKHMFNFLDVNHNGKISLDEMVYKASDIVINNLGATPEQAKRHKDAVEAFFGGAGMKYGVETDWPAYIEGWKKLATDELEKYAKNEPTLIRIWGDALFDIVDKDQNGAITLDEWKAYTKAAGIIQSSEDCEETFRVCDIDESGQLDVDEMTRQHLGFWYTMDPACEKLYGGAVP
Assay: Fluorescence spectra of semi-synthetic BFP (coelenteramide analogue + apoaequorin, CaCl2)
Assay type: physicochemical
Conditions: 10 mM CaCl2 buffer, excitation 337 nm
Catalogue of Fluorescence intensity values

compound	Fluorescence intensity / rlu
O=C(Cc1ccc(O)cc1)Nc1ncc(-c2ccc(O)cc2)nc1/C=C/c1ccccc1	52.7
CN(C)c1ccc(-c2nc(-c3ccc(O)cc3)cnc2NC(=O)Cc2ccc(O)cc2)cc1	231.3
CC(C(=O)Nc1ncc(-c2ccc(O)cc2)nc1Cc1ccccc1)c1ccc(O)cc1 (stereo not drawn)	181.4
O=C(Nc1ncc(-c2ccc(O)cc2)nc1Cc1ccccc1)c1cccc2cc(O)ccc12	24.6
O=C(Cc1ccc(O)cc1)Nc1ncc(-c2ccc(O)cc2)nc1-c1cc2ccccc2s1	153.3
O=C(Cc1ccc(O)cc1)Nc1ncc(-c2ccc(O)cc2)nc1Cc1ccccc1 [Coelenteramide]	151.2

====

Molecular target: apoaequorin (Aequorea victoria)
Construct: purchased Chisso Corporation
Assay: Fluorescence spectra of semi-synthetic gFP (coelenteramide analogue + apoaequorin, EDTA)
Assay type: physicochemical
Conditions: 10 mM EDTA buffer, excitation 337 nm
Catalogue of Semi-synthetic gFP (EDTA-containing buffer) Maximum fluorescence wavelength λmax (nm) values
metric name: Semi-synthetic gFP (EDTA-containing buffer) Maximum fluorescence wavelength λmax (nm)

compound	tgt	experimental value
O=C(Cc1ccc(O)cc1)Nc1ncc(-c2ccc(O)cc2)nc1CCc1ccccc1	apoaequorin (Aequorea victoria)	468.0 nm
O=C(Cc1ccc(O)cc1)Nc1ncc(-c2ccc(O)cc2)nc1Cc1ccccc1 [Coelenteramide]	apoaequorin (Aequorea victoria)	482.5 nm
O=C(Cc1ccc(O)cc1)Nc1ncc(-c2ccc(O)cc2)nc1-c1ccc(O)cc1	apoaequorin (Aequorea victoria)	492.5 nm
C=C(c1ccccc1)c1nc(-c2ccc(O)cc2)cnc1NC(=O)Cc1ccc(O)cc1	apoaequorin (Aequorea victoria)	499.0 nm
O=C(Nc1ncc(-c2ccc(O)cc2)nc1Cc1ccccc1)c1cccc2cc(O)ccc12	apoaequorin (Aequorea victoria)	492.5 nm
O=C(Nc1ncc(-c2ccc(O)cc2)nc1Cc1ccccc1)c1cccc(O)c1	apoaequorin (Aequorea victoria)	492.0 nm
CN(C)c1ccc(-c2nc(-c3ccc(O)cc3)cnc2NC(=O)Cc2ccc(O)cc2)cc1	apoaequorin (Aequorea victoria)	485.5 nm
O=C(Cc1ccc(O)cc1)Nc1ncc(-c2ccc(O)cc2)nc1-c1ccc2ccccc2c1	apoaequorin (Aequorea victoria)	487.0 nm
O=C(Cc1ccc(O)cc1)Nc1ncc(-c2ccc(O)cc2)nc1-c1ccc(-c2cccs2)s1	apoaequorin (Aequorea victoria)	482.5 nm
O=C(Cc1ccc(O)cc1)Nc1ncc(-c2ccc(O)cc2)nc1-c1cc2sc3ccsc3c2s1	apoaequorin (Aequorea victoria)	524.5 nm
Oc1ccc(NC(=S)Nc2ncc(-c3ccc(O)cc3)nc2Cc2ccccc2)cc1	apoaequorin (Aequorea victoria)	491.0 nm
O=C(Cc1ccc(O)cc1)Nc1cnc(-c2ccc(O)cc2)cn1	apoaequorin (Aequorea victoria)	460.0 nm
O=C(Cc1ccc(O)cc1)Nc1ncc(-c2ccc(O)cc2)nc1C#Cc1ccccc1	apoaequorin (Aequorea victoria)	523.0 nm
O=C(Cc1ccc(O)cc1)Nc1ncc(-c2ccc(O)cc2)nc1-c1ccsc1	apoaequorin (Aequorea victoria)	512.5 nm
O=C(Cc1ccc(O)cc1)Nc1ncc(-c2ccc(O)cc2)nc1-c1cccc2ccccc12	apoaequorin (Aequorea victoria)	504.5 nm
O=C(Cc1ccc(O)cc1)Nc1ncc(-c2ccc(O)cc2)nc1-c1cc2sccc2s1	apoaequorin (Aequorea victoria)	532.0 nm
CC(C(=O)Nc1ncc(-c2ccc(O)cc2)nc1Cc1ccccc1)c1ccc(O)cc1 (centres unmarked)	apoaequorin (Aequorea victoria)	487.0 nm

====

Catalogue of Coelenteramide (Buffer containing CaCl2) Maximum fluorescence wavelength λmax (nm) values
Test: Fluorescence spectra of coelenteramide analogue alone (absence of apoaequorin)
Format: physicochemical
Conditions: analogue alone 8 μg/ml, 10 mM CaCl2 buffer pH 7.6, excitation 337 nm
metric name: Coelenteramide (Buffer containing CaCl2) Maximum fluorescence wavelength λmax (nm)

compound	output unit	experimental value
O=C(Cc1ccc(O)cc1)Nc1ncc(-c2ccc(O)cc2)nc1-c1ccc([N+](=O)[O-])cc1	nm	478.5
O=C(Cc1ccc(O)cc1)Nc1ncc(-c2ccc(O)cc2)nc1-c1ccsc1	nm	470.5
O=C(Cc1ccc(O)cc1)Nc1ncc(-c2ccc(O)cc2)nc1-c1ccccc1	nm	467.5
C=C(c1ccccc1)c1nc(-c2ccc(O)cc2)cnc1NC(=O)Cc1ccc(O)cc1	nm	471.0
O=C(Nc1ncc(-c2ccc(O)cc2)nc1Cc1ccccc1)c1cccc2cc(O)ccc12	nm	410.5
O=C(Cc1ccc(O)cc1)Nc1ncc(-c2ccc(O)cc2)nc1-c1ccc(O)cc1	nm	481.0
O=C(Cc1ccc(O)cc1)Nc1ncc(-c2ccc(O)cc2)nc1C#Cc1ccccc1	nm	484.5
O=C(Cc1ccc(O)cc1)Nc1ncc(-c2ccc(O)cc2)nc1Br	nm	482.0
O=C(Cc1ccc(O)cc1)Nc1ncc(-c2ccc(O)cc2)nc1/C=C/c1ccccc1	nm	494.5
O=C(Cc1ccc(O)cc1)Nc1ncc(-c2ccc(O)cc2)nc1-c1cccc2ccccc12	nm	463.5
O=C(Nc1ncc(-c2ccc(O)cc2)nc1Cc1ccccc1)c1ccc(O)cc1	nm	450.0
O=C(Cc1ccc(O)cc1)Nc1ncc(-c2ccc(O)cc2)nc1Cc1ccccc1 [Coelenteramide]	nm	457.0
CC(C(=O)Nc1ncc(-c2ccc(O)cc2)nc1Cc1ccccc1)c1ccc(O)cc1 (stereo not shown)	nm	450.5
O=C(Cc1ccc(O)cc1)Nc1cnc(-c2ccc(O)cc2)cn1	nm	468.5
O=C(Cc1ccc(O)cc1)Nc1ncc(-c2ccc(O)cc2)nc1CCc1ccccc1	nm	483.0
O=C(Cc1ccc(O)cc1)Nc1ncc(-c2ccc(O)cc2)nc1-c1csc2ccccc12	nm	468.0

====

Molecular target: 19 kDa protein from Oplophorus luciferase (Oplophorus gracilirostris, UniProt Q9GV45)
Construct: made in house
Sequence (Q9GV45 28-196): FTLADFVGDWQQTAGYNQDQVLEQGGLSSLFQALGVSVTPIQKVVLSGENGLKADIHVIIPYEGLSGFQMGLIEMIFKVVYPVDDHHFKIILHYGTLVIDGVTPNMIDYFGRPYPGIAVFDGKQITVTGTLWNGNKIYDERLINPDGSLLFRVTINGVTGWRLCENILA
Assay: Substrate specificity and luminescence activity of the 19 kDa protein from Oplophorus luciferase
Format: biochemical
Conditions: measured for 60 seconds, coelenterazine = 100
metric name: Luminescence activity Imax (%)

chemical string	output unit	experimental value
O=c1c(Cc2ccc(O)cc2)nc2c(-c3cccs3)[nH]c(-c3ccc(O)cc3)cn1-2	%	0.1
O=c1c(Cc2ccc(O)cc2)nc2c(-c3cccc4ccccc34)[nH]c(-c3ccc(O)cc3)cn1-2	%	0.3
Oc1ccc(Cc2nc3c(Cc4ccccc4)nc(-c4ccc(O)cc4)cn3c2O)cc1	%	100.0
O=c1c(Cc2ccc(O)cc2)nc2c(-c3csc4ccccc34)[nH]c(-c3ccc(O)cc3)cn1-2	%	0.09
O=c1c(Cc2ccc(O)cc2)nc2c(-c3cc4ccccc4s3)[nH]c(-c3ccc(O)cc3)cn1-2	%	0.07
O=c1c(Cc2ccc(O)cc2)nc2c(-c3ccccc3)[nH]c(-c3ccc(O)cc3)cn1-2	%	0.4

====

Molecular target: apoaequorin (Aequorea victoria, UniProt P07164)
Construct: purchased Chisso Corporation
Assay: Fluorescence spectra of semi-synthetic gFP (coelenteramide analogue + apoaequorin, EDTA)
Type: physicochemical
Conditions: 10 mM EDTA buffer, excitation 337 nm
metric name: Semi-synthetic gFP (EDTA-containing buffer) Maximum fluorescence wavelength λmax (nm)

compound	experimental value
O=C(Nc1ccc(O)cc1)Nc1ncc(-c2ccc(O)cc2)nc1Cc1ccccc1 [Compound 4u]	494.5 nm
O=C(Cc1ccc(O)cc1)Nc1ncc(-c2ccc(O)cc2)nc1-c1ccc([N+](=O)[O-])cc1 [Compound 4o]	485.0 nm
O=C(Cc1ccc(O)cc1)Nc1ncc(-c2ccc(O)cc2)nc1-c1csc2ccccc12 [Compound 4i]	512.5 nm
O=C(Cc1ccc(O)cc1)Nc1ncc(-c2ccc(O)cc2)nc1-c1ccccc1 [Compound 4a]	521.5 nm

====

Target: apoaequorin (Aequorea victoria)
Construct: purchased Chisso Corporation
Assay: Fluorescence spectra of semi-synthetic gFP (coelenteramide analogue + apoaequorin, EDTA)
Type: physicochemical
Conditions: 10 mM EDTA buffer, excitation 337 nm
metric name: Semi-synthetic gFP (EDTA-containing buffer) Fluorescence intensity (rlu)

molecule	output unit	experimental value
CN(C)c1ccc(-c2nc(-c3ccc(O)cc3)cnc2NC(=O)Cc2ccc(O)cc2)cc1	rlu	151.5
O=C(Cc1ccc(O)cc1)Nc1ncc(-c2ccc(O)cc2)nc1-c1ccccc1	rlu	82.9
Oc1ccc(NC(=S)Nc2ncc(-c3ccc(O)cc3)nc2Cc2ccccc2)cc1	rlu	3.6
O=C(Cc1ccc(O)cc1)Nc1ncc(-c2ccc(O)cc2)nc1-c1csc2ccccc12	rlu	106.5
O=C(Cc1ccc(O)cc1)Nc1ncc(-c2ccc(O)cc2)nc1-c1ccc(O)cc1	rlu	69.7
O=C(Cc1ccc(O)cc1)Nc1ncc(-c2ccc(O)cc2)nc1-c1cccc2ccccc12	rlu	58.8
O=C(Cc1ccc(O)cc1)Nc1cnc(-c2ccc(O)cc2)cn1	rlu	106.4
O=C(Cc1ccc(O)cc1)Nc1ncc(-c2ccc(O)cc2)nc1-c1ccc(-c2cccs2)s1	rlu	163.8
O=C(Cc1ccc(O)cc1)Nc1ncc(-c2ccc(O)cc2)nc1CCc1ccccc1	rlu	176.4
O=C(Cc1ccc(O)cc1)Nc1ncc(-c2ccc(O)cc2)nc1Br	rlu	22.0
O=C(Nc1ncc(-c2ccc(O)cc2)nc1Cc1ccccc1)c1cccc2cc(O)ccc12	rlu	246.3
O=C(Cc1ccc(O)cc1)Nc1ncc(-c2ccc(O)cc2)nc1-c1ccsc1	rlu	108.5
O=C(Cc1ccc(O)cc1)Nc1ncc(-c2ccc(O)cc2)nc1-c1cccs1	rlu	70.5
O=C(Cc1ccc(O)cc1)Nc1ncc(-c2ccc(O)cc2)nc1-c1cc2sc3ccsc3c2s1	rlu	140.5
CC(C(=O)Nc1ncc(-c2ccc(O)cc2)nc1Cc1ccccc1)c1ccc(O)cc1 (centres unmarked)	rlu	54.6
O=C(Cc1ccc(O)cc1)Nc1ncc(-c2ccc(O)cc2)nc1Cc1ccccc1 [Coelenteramide]	rlu	165.2
O=C(Nc1ccc(O)cc1)Nc1ncc(-c2ccc(O)cc2)nc1Cc1ccccc1	rlu	11.4
